biological target: T1, Cyno CD33 full length, expressed on HEK293F cells (cynomolgus monkey); experiment: flow cytometry, HEK293F cells expressing cyno CD33
T1 construct: HEK293F cells transduced with lentivirus containing full length cyno CD33 (Genbank XP_005590138.1); also called cyCD33
metric: MFI at 0 nM mAb (background) (MFI)
Give just the numeric value; MFI need not be written.

Reported MFI at 0 nM mAb (background), binder C33B46 (antibody, IgG1, V domains shown, huIgG1 F405L; also called C33F51; C33H108/C33L74) VH: QVQLVQSGSELKKPGASVKVSCKASGYTFSTYAMNWVRQAPGQGLEWMGWINTNTGNPTYAQGFTGRFVFSLDTSVSTAYLQISSLKAEDTAVYYCARDRDRGTDYWGQGTLVTVSS VL: QSALTQPASVSGSPGQSITISCTGTSSDVGDDNYVSWYQQHPGKAPKLMIYDVSNRPSGVSNRFSGSKSGNTASLTISGLQSEDEADYYCSSYSSSTTLEVFGGGTKLTVL : ____
92

Reported MFI at 0 nM mAb (background), binder C33B101 (antibody, V domains shown, huIgG1 F405L; 260 is used; also called C33F106; C33H69/C4LL152) VH: QLQLQESGPGLVKPSETLSLTCTVSGGSISSSSYYWGWIRQPPGKGLDWIGSINYSGSTYYNPSLKSRVTISVDTSKIQFSLKLRSVTAADTAVYYCARLDGYESPFDYWGQGTLVTVSS VL: DIQMTQSPSSVSASVGDRVTITCRASQGISSWLAWYQQKPGKAPKLLIYAASSLQSGVPSRFSGSGSGTDFTLTISSLQPEDFATYYCQQANSFPFTFGPGTKVDIK : ____
79.7

Reported MFI at 0 nM mAb (background), binder C33B63 (antibody, IgG1, V domains shown, huIgG1 F405L; also called C33F68; C33H51/C33L34) VH: QLQLQESGPGLVKPSETLSLTCTVSGGSISTGRYYWGWIRQPPGKGVIWIGNIYYSGNTYYNPSLKSRVTISVDTSKNQFSLKLNSVTAADTAVYYCARLGSLVVVPAAMSFDYWGQGTLVTVSS VL: SYELTQPPSVSVSPGQTASITCSGDKLGDKYACWYQLRPGQSPILVIYQDSNRPSGIPERFSGSNSGNTATLTISGTQAMDEADYYCQAWDSSTWVFGGGTKLTVL : ____
87.9

Reported MFI at 0 nM mAb (background), binder C33B66 (antibody, IgG1, V domains shown, huIgG1 F405L; also called C33F71; C33H55/C33L42) VH: QVQLQESGPGLVKPSGTLSLTCAVSGGSISSSNWWSWVRQPPGRGLEWIGEIYHSGNTNNSPSLKSRVTISADKSKNQFSLKLSSVTAADTAVYFCARIIAVARYFDSWGQGTLVTVSS VL: SYVLTQPPSVSVAPGQTARITCGGNNIGIKSVHWYQQKPGQAPVLVVYDDSDRPPGIPERFSGSNSGNTATLTITRVEAGDEADYYCQVWDSSSDHVVFGGGTKLTVL : ____
78
